Test system: B6C3F1 mice, ip Sarcoma M5076, median survival T/C
Assay: NCI In Vivo Anticancer Drug Screen. Data for tumor model Sarcoma M5076 (intraperitoneal) in B6C3F1 mice
Settings: endpoint: median survival time; dose: 7.5 mg/kg/injection; schedule: Q04DX004 (ip); vehicle: saline with Tween-80; higher = longer survival
Inconclusive results and toxic doses are left out.
QUANTITY_MEASURED: T/C

Recorded T/C (compound CCOC(=O)Nc1cc2c(c(N)n1)N=C(c1ccc3ccccc3c1)CN2 ): 108 % of control

Recorded T/C (compound CCOc1c2c(nn(C)c1=O)Oc1ccccc1N2CCCN1CCOCC1 ): 92 % of control

Recorded T/C (compound COc1cccc(Sc2ccc([N+](=O)[O-])c3no[n+]([O-])c23)c1 ): 106 % of control

Recorded T/C (compound O=S(=O)(O)SCCNCCCCC1CCCCC1 ): 99 % of control

---

Tested on: B6C3F1 mice, ip Sarcoma M5076, median survival T/C
Assay: NCI In Vivo Anticancer Drug Screen. Data for tumor model Sarcoma M5076 (intraperitoneal) in B6C3F1 mice
Details: endpoint: median survival time; dose: 200.0 mg/kg/injection; schedule: Q04DX004 (ip); vehicle: saline; higher = longer survival
Protocol: The antitumor activity of compounds was measured in mice bearing transplantable tumors. Survival or tumor size were measured and the results are expressed as the measurement made in the treated group (T) divided by the measurement made in the vehicle treated control group (C). The tumor model used in this assay is Sarcoma M5076 (intraperitoneal) in B6C3F1 mice
Toxic doses and inconclusive results are not listed.
QUANTITY_MEASURED: T/C

Recorded T/C (compound NNC(=O)c1ccncc1 ): 106 % of control

Recorded T/C (compound CN(C)CCC(=O)C(=Cc1ccc(O)cc1)C(=O)CCN(C)C ): 100 % of control

Recorded T/C (compound CN1C2CCC1C(Br)C(=O)C2 (configuration not stated) ): 103 % of control

Recorded T/C (compound CCNC(=O)OCc1cnc(C)c(O)c1COC(=O)NCC ): 108 % of control

Recorded T/C (compound NCCNCC(O)CO (configuration not stated) ): 103 % of control

Recorded T/C (compound O=S(O)Cc1ccccc1CSSSCc1ccccc1CS(=O)O ): 94 % of control

Recorded T/C (compound CC1C(C#N)C(=O)NC(=O)C1C#N (configuration not stated) ): 97 % of control

---

Test system: B6C3F1 mice, ip Sarcoma M5076, median survival T/C
Assay: NCI In Vivo Anticancer Drug Screen. Data for tumor model Sarcoma M5076 (intraperitoneal) in B6C3F1 mice
Conditions: endpoint: median survival time; dose: 100.0 mg/kg/injection; schedule: Q04DX004 (ip); vehicle: saline; higher = longer survival
Toxic doses and inconclusive results are not listed.
QUANTITY_MEASURED: T/C

Recorded T/C (compound O=C(O)CC1C(=O)OC2C3COC(=O)c4cc(O)c(O)c(O)c4-c4c(cc(O)c(O)c4O)C(=O)OC2C(OC(=O)c2cc(O)c(O)c4c2C1C(O)C(=O)O4)C(OC(=O)c1cc(O)c(O)c(O)c1)O3 (stereo not given) ): 96 % of control

Recorded T/C (compound O=S(=O)(O)c1cc(N=C=S)ccc1/C=C/c1ccc(N=C=S)cc1S(=O)(=O)O ): 110 % of control

Recorded T/C (compound [Cl][Mn][Cl] ): 111 % of control

Recorded T/C (compound CN(CN1C(=O)CCC1=O)CN1C(=O)CCC1=O ): 100 % of control

Recorded T/C (compound NCCCC(N)(C(=O)O)C(F)F (stereo not given) ): 99 % of control

---

Tested on: B6C3F1 mice, ip Sarcoma M5076, median survival T/C
Assay: NCI In Vivo Anticancer Drug Screen. Data for tumor model Sarcoma M5076 (intraperitoneal) in B6C3F1 mice
Details: endpoint: median survival time; dose: 100.0 mg/kg/injection; schedule: Q04DX004 (ip); vehicle: saline with Tween-80; higher = longer survival
Inconclusive results and toxic doses are left out.
QUANTITY_MEASURED: T/C

Given the molecule CC(C)(C)c1noc2c1C(=O)c1ccccc1-2 and test system B6C3F1 mice, ip Sarcoma M5076, median survival T/C, the measured T/C is 100 % of control

Given the molecule Nc1cc2c(cc1Br)-c1c(C(=O)O)cccc1C2O (configuration not stated) and test system B6C3F1 mice, ip Sarcoma M5076, median survival T/C, the measured T/C is 97 % of control

Given the molecule ClC1(Cl)Cc2ccccc21 and test system B6C3F1 mice, ip Sarcoma M5076, median survival T/C, the measured T/C is 114 % of control

Given the molecule Cn1c(-c2ccc(Br)cc2)cc2[nH]c(=S)nc(N)c2c1=O and test system B6C3F1 mice, ip Sarcoma M5076, median survival T/C, the measured T/C is 92 % of control

Given the molecule O=C1NC2(CN3CCC2CC3)C(=O)N1CN(Cc1ccccc1)c1ccccc1 (configuration not stated) and test system B6C3F1 mice, ip Sarcoma M5076, median survival T/C, the measured T/C is 102 % of control

Given the molecule CCOC(=O)CNCc1cc(=O)[nH]c2cc(Cl)ccc12 and test system B6C3F1 mice, ip Sarcoma M5076, median survival T/C, the measured T/C is 101 % of control

Given the molecule Nc1cc(=O)n(Cc2ccco2)c(=S)[nH]1 and test system B6C3F1 mice, ip Sarcoma M5076, median survival T/C, the measured T/C is 97 % of control

Given the molecule O=C1c2ccccc2C(=O)c2c(NCCOCCO)ccc(NCCOCCO)c21 and test system B6C3F1 mice, ip Sarcoma M5076, median survival T/C, the measured T/C is 105 % of control

Given the molecule N#CC1C(=O)NC(=S)NC1c1ccc(C2CC(=O)NC(=S)N2)cc1 (configuration not stated) and test system B6C3F1 mice, ip Sarcoma M5076, median survival T/C, the measured T/C is 106 % of control

Given the molecule CCC1OCC(C(Cl)CCl)O1 (configuration not stated) and test system B6C3F1 mice, ip Sarcoma M5076, median survival T/C, the measured T/C is 97 % of control

Given the molecule COCCCn1c(C(Cl)(Cl)Cl)nn2c(=O)c3ccccc3nc2c1=O and test system B6C3F1 mice, ip Sarcoma M5076, median survival T/C, the measured T/C is 99 % of control

Given the molecule O=C(Oc1ccccc1)c1cc(O)c(O)c(O)c1 and test system B6C3F1 mice, ip Sarcoma M5076, median survival T/C, the measured T/C is 92 % of control

---

System: B6C3F1 mice, ip Sarcoma M5076, median survival T/C
Experiment: NCI In Vivo Anticancer Drug Screen. Data for tumor model Sarcoma M5076 (intraperitoneal) in B6C3F1 mice
Conditions: endpoint: median survival time; dose: 25.0 mg/kg/injection; schedule: Q04DX004 (ip); vehicle: water
Inconclusive results and toxic doses are left out. The calls were made as follows: active = survival T/C of 150% or more; inactive = T/C below 125% in these data.
Returns: one label drawn from yes = active, no = inactive

Asked: Hi, do you know how O=C1C2C3C=CC(C2C(=O)N1CO)C1C2C(=O)N(CO)C(=O)C2C31 (configuration not stated) came out in this test?
Given back: no

Asked: Hi, do you know how C#CCN(Cc1ccc2nc(N)[nH]c(=O)c2c1)c1ccc(C(=O)NC(CCC(=O)O)C(=O)O)cc1 (configuration not stated) came out in this test?
Given back: no

Asked: Hi, do you know how N#Cc1ccc(NN=O)nc1 came out in this test?
Given back: yes

Asked: Hi, do you know how Cc1ccc(NN=O)nc1 came out in this test?
Given back: yes

Asked: Hi, do you know how O=NNc1ccc2cccnc2n1 came out in this test?
Given back: no

Asked: Hi, do you know how [Cl][Pt][Cl].[NH-]C(CO)C(=O)O (configuration not stated) came out in this test?
Given back: no

Asked: Hi, do you know how Nc1ccn(C2CC(N)C(CO)O2)c(=O)n1 (configuration not stated) came out in this test?
Given back: no

Asked: Hi, do you know how O=NNc1ncccn1 came out in this test?
Given back: no

Asked: Hi, do you know how O=C1N=NC2=C1c1c3ccccc3c(O)n1CC2 came out in this test?
Given back: no

Asked: Hi, do you know how Cc1c(O)/c(=C\O)c2nc3c(=O)ccc(C(=O)NCCN(C)C)c3[nH]c2c1=O came out in this test?
Given back: no

Asked: Hi, do you know how NC(=O)c1c[se]c(C2OC(CO)C(O)C2O)n1 (configuration not stated) came out in this test?
Given back: no

Asked: Hi, do you know how Oc1cccc2ccccc12 came out in this test?
Given back: no

Asked: Hi, do you know how Cc1cc2nncn2c2nnnn12 came out in this test?
Given back: no

Asked: Hi, do you know how CCN(CC)CCN1C(=O)C2C3C=CC(C2C1=O)C1C2C(=O)N(CCN(CC)CC)C(=O)C2C31 (configuration not stated) came out in this test?
Given back: no

Asked: Hi, do you know how Cn1cc(NC(=O)c2cc(NC(=O)c3cc(NC=O)cn3C)cn2C)cc1C(=O)NCCC(=N)N came out in this test?
Given back: no

Asked: Hi, do you know how COC(=O)NC1C(C)OC(OC2C/C=C(/C)C3C=CC4C(OC5CC(OC6CC(OC7CC(O)C(O)C(C)O7)C(OC7CC(O)C(OC)C(C)O7)C(C)O6)C(O)C(C)O5)C(C)CC(C)C4C3(C)/C(O)=C3\C(=O)OC4(CC(C)C(CO)=CC4/C=C\2C)C3=O)CC1(C)[N+](=O)[O-] (configuration not stated) came out in this test?
Given back: no

Asked: Hi, do you know how O=C1NC(=O)C23CCCCc4cccc(c42)C(=O)C13 (configuration not stated) came out in this test?
Given back: no
